# measurement_notes: qHTS assay to identify small molecule HDAC inhibitors (AID 1259364); note: potency is the fitted concentration of half-maximal effect;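 note: wild-type HCT-116 cells with endogenous class I/II HDAC activity; nearly all actives have a fitted effect of over 45% in size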
# test_conditions: HCT-116 HDAC-Glo I/II luminescence, 2 h; series mostly up to 92.4 µM
Inconclusive results are not listed. Active and inactive are the calls of the source. Calls come from the whole dose curve; as a rule, active = well fitted inhibition curve with a large enough effect in the repeat runs; inconclusive = weak or mixed curves; inactive = flat fitted curve, though single readings scatter.

{"columns": ["molecule", "Potency"],
 "data": [
  ["O=C(NO)C1(NS(=O)(=O)c2ccc(Oc3ccc(F)cc3)cc2)CCOCC1", "inactive"],
  ["C/C=C(\\C)C(=O)OCc1ccccc1", "inactive"],
  ["CCC(N)(CO)CO", "inactive"],
  ["CCCCCCCC[P+](CCCCCCCC)(CCCCCCCC)CCCCCCCC", "inactive"],
  ["CCCCCCC[N+](CC)(CC)CCCCc1ccc(Cl)cc1", "inactive"],
  ["O=C(O)c1cc(O)c2c(c1)C(=O)c1cccc(O)c1C2=O", "14.1 µM (active)"],
  ["Cc1cc(=O)oc2cc(N(C)C)ccc12", "inactive"],
  ["CCCCCOc1ccccc1/C(=C\\SC)n1ccnc1", "inactive"],
  ["Nc1ccc2c3c(cccc13)-c1ccccc1-2", "inactive"],
  ["OCCN(CCO)c1nc(N2CCCCC2)c2nc(N(CCO)CCO)nc(N3CCCCC3)c2n1", "inactive"],
  ["NC(=O)C1(N2CCCCC2)CCN(CCCN2c3ccccc3CCc3ccc(Cl)cc32)CC1", "inactive"],
  ["CN(C/C=C/C#CC(C)(C)C)Cc1cccc2ccccc12", "inactive"],
  ["O=C(Nc1ccc(Oc2ccc(Cl)cc2)c(Cl)c1)c1cc(I)cc(I)c1O", "inactive"],
  ["O=C(Nc1cccc([N+](=O)[O-])c1)c1cc2ccccc2cc1O", "1.54 µM (active)"],
  ["CCCCCCCCNC(C)C(O)c1ccc(SC(C)C)cc1 (centres undefined)", "inactive"],
  ["C[C@@H]1C[C@H]2[C@@H]3CCC4=CC(=O)C=C[C@]4(C)[C@@]3(Cl)[C@@H](O)C[C@]2(C)[C@@]1(OC(=O)c1ccco1)C(=O)CCl", "inactive"],
  ["NNc1nc(-c2ccc([N+](=O)[O-])cc2)cs1", "17.2 µM (active)"],
  ["Oc1ccc(Cl)cc1Sc1cc(Cl)ccc1O", "inactive"],
  ["O=c1c(-c2ccccc2)c1-c1ccccc1", "inactive"]
]}
